Item-by-item account of TGI
- Test system: SR leukemia
- test_protocol: NCI tumour cell line growth inhibition, 48 h

Example compounds with recorded TGI:
[[record]]
compound = "COC1=CC(=O)NCCN1"
property_name = "TGI"
result = "> 100 µM"

[[record]]
compound = "CCN(CC)CCCNc1[nH]ncc2c(C)c3nc4ccccc4c3cc12"
property_name = "TGI"
result = "1.12 µM"


Data request: Any idea what TGI was measured for Cc1ccc(C)c(COCCOCn2c(=O)[nH]c(=O)c3cc(Br)ccc32)c1 ?
Data returned: > 100 µM

Data request: What value of measured TGI is listed for COc1ccc(-c2nc(-c3nc4ccc(C(F)(F)F)cc4[nH]3)c3ccccn23)cc1 ?
Data returned: > 100 µM

Data request: Fill in: TGI of CCCCCCCCCCCCCCCCOc1ccc(/C=C/C2=[N+](CCCl)CCO2)cc1 is ___
Data returned: 92.5 µM

Data request: TGI lookup needed for CCOP(C)(=O)/C(Cc1ccc(OC)c(OC)c1)=N\O (stereo not given) , thanks.
Data returned: > 100 µM

Data request: Recorded TGI for Oc1ccccc1C=Nc1ccccc1N=Cc1ccccc1O.[Cu+2] , please?
Data returned: > 100 µM

====

- System: MDA-N
- test_protocol: NCI tumour cell line growth inhibition, 48 h
property_name: TGI

Field: example entries. Status: answers known.
[[record]]
compound = "CC(=O)NC1=C(Sc2ccc(Cl)cc2)C(=O)c2ccccc2C1=O"
property_name = "TGI"
result = "3.17 µM"

[[record]]
compound = "COC(=O)c1ccc(C)cc1CC1Cc2c(C)cccc2C1=O (stereo not drawn)"
property_name = "TGI"
result = "4.82 µM"

[[record]]
compound = "CC(C)N(/C(F)=N\\C(=O)Nc1ccccc1C(F)(F)F)C(C)C"
property_name = "TGI"
result = "> 100 µM"

[[record]]
compound = "Cc1ccc(NC(=O)/C(=N\\NC(N)=O)c2c(O)c3ccccc3[nH]c2=O)cc1"
property_name = "TGI"
result = "> 100 µM"

[[record]]
compound = "NC(=O)C1N=NSC1NC(=O)c1ccc([N+](=O)[O-])cc1 (stereo not drawn)"
property_name = "TGI"
result = "> 100 µM"

[[record]]
compound = "Nc1nc(-c2cc(-c3cccc4ccccc34)nc(N)n2)cc(-c2cccc3ccccc23)n1"
property_name = "TGI"
result = "> 100 µM"

[[record]]
compound = "COc1ccccc1/C=C/c1nc2ccccc2o1"
property_name = "TGI"
result = "> 10 µM"

[[record]]
compound = "Nc1ccc(OCCCc2c(-c3ccccc3)nc(N)[nH]c2=O)cc1"
property_name = "TGI"
result = "> 100 µM"

[[record]]
compound = "Cc1ccc(C)c(COCCOCn2c(=O)[nH]c(=O)c3cc(Br)ccc32)c1"
property_name = "TGI"
result = "> 100 µM"

[[record]]
compound = "C=CCN1C[C@@H](C)N([C@@H](c2ccc(C(=O)N(CC)CC)cc2)c2cccc(OC)c2)C[C@@H]1C"
property_name = "TGI"
result = "> 100 µM"


Data request: Requested read-out: TGI. Entry: CC(=O)OC1[C@@H](OC(C)=O)CN(OCc2ccccc2)C[C@H]1OC(C)=O (stereo partly drawn)
Data returned: > 100 µM

Data request: Quick one: TGI for Cc1cccc(C(=O)O)c1CC1NCCC2c3ccccc3NC12 (stereo not drawn) ?
Data returned: > 100 µM

Data request: Which TGI is reported for this compound? CC(=O)c1ccccc1NS(=O)(=O)c1ccc2nc(C)n(NS(=O)(=O)c3ccccc3C(C)=O)c(=O)c2c1
Data returned: > 100 µM

Data request: Could you tell me which TGI is on file for O=S(=O)(NCCO)c1cc[c]([Sb](=[O])([OH])[OH])cc1 ?
Data returned: > 100 µM

Data request: What value of measured TGI is listed for C#CC(=O)OCC#CCOC(=O)C#C ?
Data returned: > 100 µM

====

Listed below: TGI values for each entry.
- Tested on: MDA-MB-231 breast
- test_protocol: NCI tumour cell line growth inhibition, 48 h

[[record]]
compound = "CC#CCCCC1(C)CCCNC1=S (centres undefined)"
target_system = "MDA-MB-231 breast"
result = "> 10 µM"

[[record]]
compound = "CN(C)/C=C/c1c2c(nc3ccccc13)C(=O)c1ccccc1C2=O"
target_system = "MDA-MB-231 breast"
result = "4.26 µM"

[[record]]
compound = "CCOP(C)(=O)/C(Cc1ccc(OC)c(OC)c1)=N\\O (centres undefined)"
target_system = "MDA-MB-231 breast"
result = "> 100 µM"


Data request: TGI lookup needed for COc1ccc(/C(=N/O)c2cc(OC)c(OC)c(OC)c2)c(OC)c1N , thanks.
Data returned: > 100 µM

====

- Test system: UACC-62 melanoma
- test_protocol: NCI tumour cell line growth inhibition, 48 h
Examples of compounds with documented TGI follow.

The cases that follow already have their TGI on record.
[[record]]
compound = "COc1ccc2c(c1)CCN1C3=C(CCC3)C(=O)C[C@@H]21"
result = "> 100 µM"

[[record]]
compound = "NC(CO)C(=O)NCC(=O)O (configuration not stated)"
result = "> 100 µM"

[[record]]
compound = "Cc1nc2cccc([N+](=O)[O-])c2n1CCCN(C)C"
result = "> 100 µM"

[[record]]
compound = "NCCN1C(=O)c2ccccc2C1(O)c1ccc(Cl)cc1 (configuration not stated)"
result = "30.7 µM"

[[record]]
compound = "COc1ccc(/C=C2\\CN(C)CC3C2=NN(c2ccccc2)C3c2ccc(OC)cc2)cc1 (configuration not stated)"
result = "> 100 µM"

[[record]]
compound = "NC(=O)CNC(=O)[C@@H]1C[C@@H](OCCC(=O)O)CN1C(=O)OCc1ccccc1"
result = "> 100 µM"

[[record]]
compound = "COc1cc(NC(C)CCCN)c2ncccc2c1Sc1ccc(Cl)cc1 (configuration not stated)"
result = "3.33 µM"

[[record]]
compound = "Nc1ccc(OCCCc2c(-c3ccccc3)nc(N)[nH]c2=O)cc1"
result = "43 µM"

[[record]]
compound = "Brc1ccc(C2SCc3nc4ccccc4n32)cc1 (configuration not stated)"
result = "21.1 µM"

[[record]]
compound = "O=[p+]1c2ccccc2[nH]c2ccccc21"
result = "> 100 µM"


Data request: Name the reported TGI value associated with the compound Cn1c2ccccc2c2nnc(NNCc3ccccn3)nc21
Data returned: 0.98 µM

Data request: Given the compound COc1cc2c(cc1O)C(c1cc(O)c(O)c(OC)c1)C(O)(C(=O)O)C(CO)C2O (configuration not stated) , what is its reported TGI?
Data returned: > 100 µM

Data request: Query: TGI; subject: COc1cc2c(cc1OC)[C@@H]([C@H](O)c1ccccc1)NCC2
Data returned: > 100 µM

Data request: Would you mind telling me what TGI value was observed for CC(OC(=O)N(N(CCCl)S(C)(=O)=O)S(C)(=O)=O)c1ccc([N+](=O)[O-])cc1 (configuration not stated) ?
Data returned: > 100 µM

Data request: Can you share its TGI? I mean this compound: CCOC(=O)N1N(c2ccccc2)C(=O)C1(c1ccccc1)c1ccccc1
Data returned: > 100 µM

====

- System: RXF 393 renal
- test_protocol: NCI tumour cell line growth inhibition, 48 h
property_name: TGI

Worked set:
[[record]]
compound = "O=P1(Oc2ccccc2)NCc2ncccc2O1 (stereo unspecified)"
result = "> 100 µM"

[[record]]
compound = "COc1cc2ccc(CC(N)=O)cc2cc1OC"
result = "> 100 µM"


Data request: For O=C(CCc1ccc(O)cc1)NCCCNC(=O)CCc1ccc(O)cc1 , what is its reported TGI?
Data returned: > 100 µM

Data request: Consider the compound O=C1c2c(c3c4ccccc4[nH]c3c3[nH]c4ccccc4c23)C(=O)N1Cc1ccccc1 and give its measured TGI.
Data returned: 4.12 µM

Data request: Quick one: TGI of COc1cc2c(cc1O)C(c1cc(O)c(O)c(OC)c1)C(O)(C(=O)O)C(CO)C2O (stereo unspecified) ?
Data returned: > 100 µM

Data request: Consider the compound shown here: Cn1c(=O)c2nc(NCCO)cnc2n(C)c1=O What is its recorded TGI?
Data returned: 81.5 µM

====

- Tested on: PC-3 prostate
- test_protocol: NCI tumour cell line growth inhibition, 48 h
Using TGI as the sorting value, the categories are zone 1 = under 8 µM, zone 2 = from 8 µM up to 30 µM, zone 3 = 30 µM and over

Some solved entries appear below for comparison.
[[record]]
compound = "N#CCCN(CCC#N)c1ccc(C(N=Nc2ccc(Cl)cc2)=Nc2ccc(Cl)cc2)cc1"
target_system = "PC-3 prostate"
label_value = "zone 3"

[[record]]
compound = "CCCCCCCCCCCCCCCCOc1ccc(/C=C/C2=[N+](CCCl)CCO2)cc1"
target_system = "PC-3 prostate"
label_value = "zone 3"

[[record]]
compound = "CC(=O)/C(=C\\c1c(-c2ccccc2)[nH]c2ccccc12)S(=O)(=O)c1ccccc1"
target_system = "PC-3 prostate"
label_value = "zone 2"

[[record]]
compound = "C[C@@](O)(/C=C/[C@H]1CC=CC(=O)O1)[C@@H](C[C@@H](O)\\C=C/C=C\\C=C\\CO)OP(=O)(O)O"
target_system = "PC-3 prostate"
label_value = "zone 2"

[[record]]
compound = "CC(=O)OCCOCCN1CCN(c2c(O)c3c(c(O)c2Cl)C(=O)C=CC3=O)CC1"
target_system = "PC-3 prostate"
label_value = "zone 1"


Data request: Lab note: sort N=C(N)SCc1ccc([N+](=O)[O-])cc1[N+](=O)[O-] into the matching TGI band.
Data returned: zone 3

Data request: Entry Cc1cc(C)c2c(=O)cc(-c3ccc4ccccc4c3)[nH]c2n1 belongs to which category?
Data returned: zone 3

Data request: Looking at COc1ccc(Oc2cc(NCCC(F)(F)F)c3ncc(-c4ccc(C(=O)NC5CC5)c(C)c4)n3n2)c(F)c1F , which class would you pick?
Data returned: zone 3

Data request: Any idea which band O=Nc1c(O)c2ccccc2c2ccccc12 is in?
Data returned: zone 1

Data request: Kindly identify the class of O=C1C=C2CC[C@H]3[C@@H]4CC[C@H](Oc5c6ccccc6nc6ccccc56)[C@H]4CC[C@@H]3[C@H]2CC1 .
Data returned: zone 3
